Target: CDK2/CyclinE1 (Homo sapiens (Human), UniProt P24941)
Test: CDK2 kinase assay (TR-FRET)
Conditions: CDK2/CyclinE1 0.5 nM, ATP 50 μM
pIC50: −log10 of the molar value.
RECORDED_ENDPOINT: pIC50

[[record]]
compound = "Cc1cc(CC(=O)Nc2cc([C@H]3CC[C@@H](OC(=O)NC4COC5(CCC5)C4)C3)[nH]n2)on1 (single isomer, unassigned) [Compound 38]"
readout_value = 7.65

[[record]]
compound = "COC[C@H]1C[C@@H]1C(=O)Nc1cc([C@@H]2CC[C@H](OC(=O)NC3(C)CC3)C2)[nH]n1"
readout_value = 9.30

[[record]]
compound = "COC[C@@H]1C[C@H]1C(=O)Nc1cc([C@H]2CC[C@@H](OC(=O)NC(C)C)C2)[nH]n1"
readout_value = 6.96

[[record]]
compound = "Cn1nccc1C(=O)Nc1cc([C@H]2C[C@@H](OC(=O)NC3(C)CCC3)CO2)[nH]n1"
readout_value = 9.00

[[record]]
compound = "COCC1C[C@@H]1C(=O)Nc1cc([C@H]2CC[C@@H](OC(=O)NC(C)(C)C)C2)[nH]n1 (some centres unmarked)"
readout_value = 8.70

[[record]]
compound = "C#C[C@H]1C[C@@H]1C(=O)Nc1cc([C@@H]2C[C@H](OC(=O)NC3(C)COC3)CO2)[nH]n1"
readout_value = 7.80

[[record]]
compound = "CC1(NC(=O)O[C@@H]2CC[C@H](c3cc(NC(=O)[C@@H]4CCN(S(C)(=O)=O)C4)n[nH]3)C2)CC1"
readout_value = 8.96

[[record]]
compound = "Cc1occc1C(=O)Nc1cc([C@@H]2C[C@H](OC(=O)NC(C)C)CO2)[nH]n1"
readout_value = 7.30

[[record]]
compound = "CCc1cc(C(=O)Nc2cc([C@@H]3C[C@H](OC(=O)NC(C)C)CO3)[nH]n2)n(C)n1"
readout_value = 7.73

[[record]]
compound = "CC(C)NC(=O)O[C@@H]1CC[C@H](c2cc(NC(=O)C3CC3C#N)n[nH]2)C1 (single isomer, unassigned) [Compound 117]"
readout_value = 8.42

[[record]]
compound = "COC[C@H]1C[C@@H]1C(=O)Nc1cc([C@H]2CC[C@@H](OC(N)=O)C2)[nH]n1"
readout_value = 7.32

[[record]]
compound = "CC(C)NC(=O)O[C@@H]1CC[C@H](c2cc(NC(=O)[C@H]3CCN(S(C)(=O)=O)C3)n[nH]2)C1"
readout_value = 8.62

[[record]]
compound = "Cc1c(C2CC2C(=O)Nc2cc([C@H]3CC[C@@H](OC(=O)NC4(C)CCC4)C3)[nH]n2)cnn1C (some centres unmarked)"
readout_value = 7.53

[[record]]
compound = "Cn1nccc1C(=O)Nc1cc([C@H]2C[C@@H](OC(=O)NC(C)(C)C)CO2)[nH]n1"
readout_value = 8.82


The measured values listed here are drawn from patent US20250195475A1.
